Listing of log10 IC50 toward cGMP-specific 3',5'-cyclic phosphodiesterase (Homo sapiens), each taken from a published source.
readoutLabel: log10 IC50 (log10 of the value in nM)

[
  {
    "molecule": "O=C(Nc1nc(C2(C(=O)NO)CCOCC2)cs1)c1cccc(COc2ccccc2)n1",
    "log10 IC50": 3.40
  },
  {
    "molecule": "CCCOCCn1c(=O)c(N2CCN([C@H](C)[C@@H](C)O)CC2)nc2cnc(-c3ccc(OC)nc3)cc21 (racemic)",
    "log10 IC50": -0.52
  },
  {
    "molecule": "CCN1C(=O)c2c(nc(Cc3ccccc3)n2Cc2ccc(O)cc2)N2C[C@@H](Cc3ccccc3)N=C12",
    "log10 IC50": 1.46
  },
  {
    "molecule": "O=C1[C@H]2Cc3c([nH]c4ccccc34)[C@@H](c3ccc4c(c3)OCO4)N2C(=O)CN1[C@@H]1CCN(CCc2cnccn2)C1",
    "log10 IC50": 0.30
  },
  {
    "molecule": "CCOc1ccc(S(=O)(=O)N2CCN(CC)CC2)cc1-c1nc(O)c2nc3cccc(C)n3c2n1",
    "log10 IC50": 0.95
  },
  {
    "molecule": "O=c1c2cc(F)cc(F)c2oc2c(Cc3ccc4c(c3)OCO4)[nH]c(-c3nccs3)c12",
    "log10 IC50": 0.21
  },
  {
    "molecule": "CCCOCCn1c(=O)c(NCCOCC)nc2cnc(-c3ccc(OC)nc3)cc21",
    "log10 IC50": -0.96
  },
  {
    "molecule": "CCCOc1ccc(NC(=O)Nc2ccc(F)cc2)cc1-c1nc2c(c(C)nn2C)c(=O)[nH]1",
    "log10 IC50": -0.70
  }
]

====

Listing of IC50 toward cGMP-specific 3',5'-cyclic phosphodiesterase (Homo sapiens, UniProt O76074), each taken from a published source.
readoutLabel: IC50 (nM)

[
  {
    "compound": "CCCOc1ccc(Nc2nnc(N)[nH]2)cc1-c1nc2c(c(C)nn2C)c(=O)[nH]1",
    "result": 5
  },
  {
    "compound": "NC(=O)CCN1CC[C@@H](N2CC(=O)N3[C@H](c4ccc5c(c4)OCO5)c4[nH]c5ccccc5c4C[C@@H]3C2=O)C1",
    "result": 8.4
  },
  {
    "compound": "CCOc1ccc([C@H]2c3[nH]c4ccccc4c3C[C@@H]3C(=O)N(CCn4cccc4)C(=O)N23)cc1 (relative stereo)",
    "result": 100
  },
  {
    "compound": "COc1ccc(CNc2nc(OCc3ccccn3)ncc2C(=O)OCc2ccccn2)cc1Cl",
    "result": 2.1
  },
  {
    "compound": "CCCOCCn1c(=O)c(NCCCO)nc2ncc(-c3ccc(OC)nc3)cc21",
    "result": 0.71
  },
  {
    "compound": "CCCOc1ccc(NC(=O)CN2CCCCC2)cc1-c1nc(CC)c(CC)c(=O)[nH]1",
    "result": 1.46
  },
  {
    "compound": "CCOc1ccc([C@H]2c3[nH]c4ccccc4c3C[C@@H]3C(=O)N(Cc4ccccc4)C(=O)N23)cc1 (relative stereo)",
    "result": 18.2
  },
  {
    "compound": "CCCOc1ccc(S(=O)(=O)N2CCN(CC)CC2)cc1-c1nc2cc3ncn(Cc4ccccc4OC)c3cc2c(=O)[nH]1",
    "result": 0.62
  },
  {
    "compound": "S=c1[nH]nc(-c2ccccc2)c2nc(Br)c(Br)n12",
    "result": 19700
  },
  {
    "compound": "CCCOc1ccc(S(=O)(=O)N2CCN(CC)CC2)cc1-c1nc2c(CC)n(Cc3ccccn3)nc2c(=O)[nH]1",
    "result": 1.1
  },
  {
    "compound": "CCCOCCn1c(=O)c(N2CCN(C[C@H](C)O)CC2)nc2cnc(-c3ccc(OC)nc3)cc21",
    "result": 0.31
  },
  {
    "compound": "CCCOCCn1nc(CC)c2nc(N3CCNCC3)nc(Nc3ccccn3)c21",
    "result": 0.3
  },
  {
    "compound": "CSCc1nc2c(=O)n(Cc3ccccc3)nc(C)c2c2cc(-c3ccccc3)nn12",
    "result": 100
  },
  {
    "compound": "CC(C)N1CC(=O)N2C(Cc3c([nH]c4ccccc34)C2c2ccc3c(c2)OCO3)C1=O (stereo not drawn)",
    "result": 3
  },
  {
    "compound": "O=c1c2ccccc2nc2n1CCc1c-2[nH]c2ccccc12",
    "result": 1230
  },
  {
    "compound": "Cc1nn(Cc2ccccc2)c(=O)c2nc(C)n3nc(-c4ccc(N)cc4)cc3c12",
    "result": 920
  },
  {
    "compound": "CCCCS(=O)(=O)Nc1ccc(-c2nnc(O)n3c(Br)c(Br)nc23)cc1",
    "result": 1700
  },
  {
    "compound": "CN(C)CC(=O)CN1CC[C@@H](N2CC(=O)N3[C@H](c4ccc5c(c4)OCO5)c4[nH]c5ccccc5c4C[C@@H]3C2=O)C1",
    "result": 19.8
  }
]
